Tested on: beta-receptor mediated tachycardia (dog heart rate)
experiment-summary: beta-blockade in vivo in pentobarbital-anesthetized dogs, 40-minute infusion, inhibition of heart rate response to isoproterenol and recovery
protocol-conditions: Canis lupus familiaris, iv, 40 min; read-out: Potency mg/kg/40 min
Counter-ions that a name gives are not always drawn.
quantity-kind: log10 ED50 (log10 of the value in mg/kg)
Record value = log10 of ED50 given in mg/kg.

A selection of reference data follows.
compound: COC(=O)c1ccccc1OCC(O)CNC(C)(C)C (stereo not shown) [Example X, Hydrochloride Hemihydrate]
value-observed: -0.85
--
compound: COC(=O)c1ccc(OCC(O)CNC(C)C)cc1.Cl (stereo not shown)
value-observed: 0.57
--
compound: COC(=O)c1ccccc1OCC(O)CNC(C)C (stereo not shown)
value-observed: -0.75

Your task in this section: give log10 ED50 for each listed record.
1. COC(=O)Cc1ccc(OCC(O)CNC(C)C)cc1.Cl (stereo not shown)
2. CCOC(=O)c1ccc(OCC(O)CNC(C)C)cc1.Cl (stereo not shown)
3. COC(=O)CCc1ccc(OCC(O)CNC(C)(C)C)cc1 (stereo not shown)

[0.36, 0.76, 0.65]

Quick check: log10 ED50 of COC(=O)CCc1ccc(OCC(O)CNC(C)C)cc1.Cl (stereo not shown) ?
0.13

###

Provide the recorded Cardioselectivity for the entries that follow.
Test system: β-adrenergic receptors, guinea pig right atria
experiment-summary: β-blocking activity in vitro, guinea pig right atria (rate response to isoproterenol)
Format: cell-based
protocol-conditions: ratio KB trachea/KB atria; greater than one indicates cardioselectivity
One number for each entry.

compound: CCCOC(=O)CCc1ccc(OCC(O)CNC(C)C)cc1.Cl (stereo not drawn)
quantity-kind: Cardioselectivity
value-observed: 1.6
--
compound: C=CCOC(=O)c1ccc(OCC(O)CNC(C)C)cc1 (stereo not drawn)
quantity-kind: Cardioselectivity
value-observed: 4
--
compound: COC(=O)c1ccc(OCC(O)CNC(C)C)cc1.Cl (stereo not drawn)
quantity-kind: Cardioselectivity
value-observed: 19
--
compound: COC(=O)c1ccccc1OCC(O)CNC(C)C (stereo not drawn)
quantity-kind: Cardioselectivity
value-observed: 2
--
compound: C=CCOC(=O)c1ccccc1OCC(O)CNC(C)C (stereo not drawn)
quantity-kind: Cardioselectivity
value-observed: 1
--
compound: CCOC(=O)c1ccc(OCC(O)CNC(C)C)cc1.Cl (stereo not drawn)
quantity-kind: Cardioselectivity
value-observed: 2.5

Your task in this section: give Cardioselectivity for each listed record.
1. COC(=O)CCc1ccc(OCC(O)CNC(C)C)cc1.Cl (stereo not drawn)
2. COC(=O)CCc1ccc(OCC(O)CNC(C)(C)C)cc1 (stereo not drawn)
3. COC(=O)c1ccccc1OCC(O)CNCCc1ccc(OC)c(OC)c1.O=C(O)C(=O)O (stereo not drawn)

1: 30; 2: 4; 3: 16

###

experiment-summary: disappearance in vitro in human whole blood
Type: in vitro ADME
protocol-conditions: 37° C., 50 μg test compound, read-out: T1/2 Human Blood
Where a name gives a salt, the structure may show the parent alone.
quantity-kind: half-life

A selection of reference data follows.
compound: COC(=O)c1ccccc1OCC(O)CNC(C)(C)C (stereo not drawn) [Example X, Hydrochloride Hemihydrate]
half-life: 7 min
--
compound: CCOC(=O)c1ccc(OCC(O)CNC(C)C)cc1.Cl (stereo not drawn)
half-life: > 60 min

Lab note: next compound to report on.
Quick check: half-life of COC(=O)c1ccccc1OCC(O)CNCCc1ccc(OC)c(OC)c1.O=C(O)C(=O)O (stereo not drawn) ?
8 min

###

experiment-summary: disappearance in vitro in human whole blood
Type: in vitro ADME
protocol-conditions: 37° C., 50 μg test compound, read-out: T1/2 Human Blood
quantity-kind: half-life (min)
Numbers only, in min.

A selection of reference data follows.
compound: COC(=O)CCc1ccc(OCC(O)CNC(C)C)cc1.Cl (stereo not drawn)
quantity-kind: half-life
value-observed: 44
--
compound: COC(=O)CCc1ccc(OCC(O)CNCCc2ccc(OC)c(OC)c2)cc1 (stereo not drawn)
quantity-kind: half-life
value-observed: 44

Your task in this section: give half-life for each listed record.
1. COC(=O)c1ccccc1OCC(O)CNC(C)C (stereo not drawn)
2. COC(=O)CCc1ccccc1OCC(O)CNC(C)C (stereo not drawn)
3. COC(=O)Cc1ccc(OCC(O)CNC(C)C)cc1.Cl (stereo not drawn)

1. 7
2. 11
3. 2

###

experiment-summary: disappearance in vitro in dog whole blood
Format: in vitro ADME
protocol-conditions: 37° C., 50 μg test compound, read-out: T1/2 Dog Blood
Where a name gives a salt, the structure may show the parent alone.
Provide the recorded half-life for the entries that follow.
Give bare numbers, in h.

A selection of reference data follows.
compound: CCOC(=O)c1ccc(OCC(O)CNC(C)C)cc1.Cl (stereo not drawn)
unit-info: h
half-life: 1
--
compound: COC(=O)c1ccccc1OCC(O)CNC(C)(C)C (stereo not drawn) [Example X, Hydrochloride Hemihydrate]
unit-info: h
half-life: 0.283
--
compound: COC(=O)c1ccc(OCC(O)CNC(C)C)cc1.Cl (stereo not drawn)
unit-info: h
half-life: 1
--
compound: COC(=O)c1ccccc1OCC(O)CNCCc1ccc(OC)c(OC)c1.O=C(O)C(=O)O (stereo not drawn)
unit-info: h
half-life: 2
--
compound: COC(=O)c1ccccc1OCC(O)CNC(C)C (stereo not drawn)
unit-info: h
half-life: 0.633

Your task in this section: give half-life for each listed record.
1. COC(=O)CCc1ccc(OCC(O)CNC(C)C)cc1.Cl (stereo not drawn)
2. COC(=O)Cc1ccc(OCC(O)CNC(C)C)cc1.Cl (stereo not drawn)

1. 0.683
2. 1

Your task in this section: give half-life for each listed record.
1. COC(=O)CCc1ccc(OCC(O)CNCCc2ccc(OC)c(OC)c2)cc1 (stereo not drawn)
2. COC(=O)CCc1ccccc1OCC(O)CNC(C)C (stereo not drawn)

[0.217, 2]

###

tested-on: β-adrenergic receptors, guinea pig tracheal strips (Cavia porcellus)
Construct: Spiral strips of guinea pig trachea; from tissue; host or cells: guinea pig trachea, spiral strips
Sequence (Q8K4Z4 whole entry): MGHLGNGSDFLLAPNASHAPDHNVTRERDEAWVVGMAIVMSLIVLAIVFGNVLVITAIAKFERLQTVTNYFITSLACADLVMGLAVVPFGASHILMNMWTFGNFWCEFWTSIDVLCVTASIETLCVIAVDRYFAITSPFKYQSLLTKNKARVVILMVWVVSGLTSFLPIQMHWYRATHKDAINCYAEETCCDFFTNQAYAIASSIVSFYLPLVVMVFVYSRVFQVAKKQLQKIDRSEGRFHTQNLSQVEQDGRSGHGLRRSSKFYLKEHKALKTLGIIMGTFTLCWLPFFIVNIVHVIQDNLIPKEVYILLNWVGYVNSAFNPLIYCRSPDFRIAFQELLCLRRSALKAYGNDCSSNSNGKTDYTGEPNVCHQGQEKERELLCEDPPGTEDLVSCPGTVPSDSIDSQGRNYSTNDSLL
experiment-summary: β-blocking activity in vitro, guinea pig tracheal strips (tension response to isoproterenol)
Type: cell-based
protocol-conditions: read-out: pA2 Trachea (converted)
Provide the recorded Kb for the entries that follow.
Express your answer as a number followed by its unit.

molecule: C=CCOC(=O)c1ccccc1OCC(O)CNC(C)C (stereo not shown)
tested-on: β-adrenergic receptors, guinea pig tracheal strips (Cavia porcellus)
value-observed: 12.6 nM
//
molecule: C=CCOC(=O)c1ccc(OCC(O)CNC(C)C)cc1 (stereo not shown)
tested-on: β-adrenergic receptors, guinea pig tracheal strips (Cavia porcellus)
value-observed: 2000 nM
//
molecule: C=CCOC(=O)c1cccc(OCC(O)CNC(C)C)c1 (stereo not shown)
tested-on: β-adrenergic receptors, guinea pig tracheal strips (Cavia porcellus)
value-observed: 63.1 nM

Quick check: Kb of COC(=O)CCc1ccc(OCC(O)CNC(C)C)cc1.Cl (stereo not shown) [Example IV, Hydrochloride] ?
2510 nM

###

experiment-summary: disappearance in vitro in dog liver homogenate
Format: in vitro ADME
protocol-conditions: 33% (w/v) dog liver homogenate, 37° C., 50 μg test compound; read-out: T1/2 Dog Liver
Procedure: The rate of disappearance of a compound is expressed as the half-life (T1/2), which is the time period in which one-half of the initial amount of compound tested disappears. […] At the designated time periods, the test mixtures were removed from the incubator and transferred to a 0° C. ice bath. […] The half-life of each test compound was determined graphically by plotting the decrease in concentration as a function of time.
Where a name gives a salt, the structure may show the parent alone.
Provide the recorded half-life for the entries that follow.

compound: COC(=O)CCc1ccccc1OCC(O)CNC(C)C (centres unmarked)
half-life: < 2.5 min
--
compound: COC(=O)c1ccccc1OCC(O)CNC(C)C (centres unmarked)
half-life: 19 min
--
compound: COC(=O)CCc1ccc(OCC(O)CNC(C)C)cc1.Cl (centres unmarked)
half-life: < 5 min
--
compound: COC(=O)Cc1ccc(OCC(O)CNC(C)C)cc1.Cl (centres unmarked)
half-life: 5 min
--
compound: COC(=O)c1ccc(OCC(O)CNC(C)C)cc1.Cl (centres unmarked)
half-life: > 180 min

Your task in this section: give half-life for each listed record.
1. COC(=O)CCc1ccc(OCC(O)CNCCc2ccc(OC)c(OC)c2)cc1 (centres unmarked)
2. COC(=O)c1ccccc1OCC(O)CNC(C)(C)C (centres unmarked) [Example X, Hydrochloride Hemihydrate]
3. COC(=O)c1ccccc1OCC(O)CNCCc1ccc(OC)c(OC)c1.O=C(O)C(=O)O (centres unmarked)

["2 min", "5 min", "3 min"]
